Recorded values, source ChEMBL document CHEMBL1201862.

Catalogue of GI50 values
test system: SF-295; test: NCI tumour cell line growth inhibition, 48 h
The source made the active and inactive calls. Cut-off read from the data, not from the text of the source: active = GI50 up to about 1.1 µM and inactive = higher.

> print(dat)
                                   compound      value.observed
1  COc1ccc(/C=C2\N=C(c3ccccc3)OC2=O)c(OCc2ccccc2)c1  17.9 µM (inactive)

The value of GI50 recorded for "N[C@@H]1C[C@H](N)c2c(Cl)sc(Cl)c21" when tested on SF-295 reads > 100 µM (inactive)

The value of GI50 recorded for Cc1ccccc1C1OC(=O)c2ccc3ccccc3c21 (stereo unspecified) when tested on SF-295 reads 7.35 µM (inactive)

The value of GI50 recorded for "Clc1cc(Cl)c2c(Cl)cc(Cl)c3c2c1N=S=N3" when tested on SF-295 reads > 100 µM (inactive)
